What follows is a collection of pIC50 values obtained with Protease (Human immunodeficiency virus 1).
Sequence (Q9YQ12 whole entry): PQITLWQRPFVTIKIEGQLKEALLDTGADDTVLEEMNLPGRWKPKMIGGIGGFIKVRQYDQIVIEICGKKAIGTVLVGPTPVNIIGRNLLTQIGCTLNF
The quantity pIC50 is defined as the negative base-10 logarithm of the molar concentration.

Recorded pIC50 of COc1nc(N)nc2c1ncn2CC(=O)N[C@@H](Cc1ccccc1)[C@H](O)CN(CC(C)C)S(=O)(=O)c1ccc([N+](=O)[O-])cc1 , please. 5.76

Which pIC50 reading was recorded for the compound Cc1nc2cncnc2n1CC(=O)N[C@@H](Cc1ccccc1)[C@H](O)CN(CC(C)C)S(=O)(=O)c1ccc(N)cc1 ? 6.19

Report pIC50 for CC(C)CN(C[C@@H](O)[C@H](Cc1ccccc1)NC(=O)Cn1cnc2c(Cl)ncnc21)S(=O)(=O)c1ccc(N)cc1 please. 5.15

Which pIC50 is reported for this compound? COc1ccc(S(=O)(=O)N(CC(C)C)C[C@@H](O)[C@H](Cc2ccccc2)NC(=O)Cn2cnc3c(C)ncnc32)cc1 7.38

Could you tell me which pIC50 is on file for CC(C)CN(C[C@@H](O)[C@H](Cc1ccccc1)NC(=O)Cn1cnc2c(N)ncnc21)S(=O)(=O)c1ccc([N+](=O)[O-])cc1 ? 5.45

Which value of pIC50 has been reported for CC(C)CN(C[C@@H](O)[C@H](Cc1ccccc1)NC(=O)Cn1cnc2cnc(N)nc21)S(=O)(=O)c1ccc([N+](=O)[O-])cc1 in the records? 5.43

Which pIC50 reading was recorded for the compound CC(C)CN(C[C@@H](O)[C@H](Cc1ccccc1)NC(=O)Cn1cnc2cncnc21)S(=O)(=O)c1ccc(N)cc1 ? 6.24
